Experiment: soluble on expression in E. coli; label from the status in PepcDB or PDB records
Measured Metric: soluble on expression in E. coli

>  <Chain>
MGSDKIHHHHHHMMHDDQVNIDIDIARKMIRDQFPQYRHEDITSVGSSGTVNAIFRIGSKSAARFPLRAMNPTECADMLRSEAAAMVEIGKHCLFPTPQPIGIGEPGPRYPMPWALQTWIEGEVATPHGLSGSTMFALDLARLVASLRQADTRGRRFDGQGRGGHLPDHDDWMAVCLENSEGLLDVARLRDLWARLRELPCAGSVVMSHKDLIPANLLVQGERLVGVLDGGSFGPADPSLDLVVGWHLLDRERRAAFRSGLQVEDLLWKRGAAWAFQQAMGLVWYYRRTNRAMSALGRSTLSRILADPDI

>  <Measured Metric>
soluble on expression in E. coli

>  <Value Reported>
not soluble

$$$$
>  <Chain>
GPGSMVRSSSSSSAPLWKNQGGGSATAGAVASTTSPWLLRQLALAHFHNGDIQESADAFEQLLRTAPWELTNPALIFYSTALWHLKSESALGSLAQRLTDAEPLSATTLCVVANAYSLIKDPRDALVMLKRAVQVAPTLAYAHALHGYELLGQDSKAEAEAEFKAALAVDASLYIAYAGLGERFMREEQIDKARGYYKEAVKLNPTPAIVNRFALTYHRQGKSLADLKTALRLYTESLERHPNNVTARRQRADVLLRLDQPMQALEELKALLVQCPGEAVVYVTLAECMVCLRRPHEALQHYQTAMHLDPRRESYVQGCIDQLVAANML

>  <Measured Metric>
soluble on expression in E. coli

>  <Value Reported>
soluble

$$$$
>  <Chain>
SYSVGQVAGFAGVTVRTLHHYDDIGLLVPSERSHAGHRRYSDADLDRLQQILFYRELGFPLDEVAALLDDPAADPRAHLRRQHELLSARIGKLQKMAAAVEQAMEARS

>  <Measured Metric>
soluble on expression in E. coli

>  <Value Reported>
soluble

$$$$
>  <Chain>
MNVAAILLAAGKSQRMGLCKQLLQLADRPAVAHCLDTLTAVGLQEIIVVVSPGGDEVAAAVSRYPVVVAVNESDSCDMADSARTGLARLISDPTGVLVALADHPLVRPDTVRALVNRHGEEPDAILIPVHDGAKGHPTLFPAAILQEIGQVATLRDIIGRHRDKVRLVPVADEGVVMDMDVWEDYLAMAERLNPPGLEHHHHHH

>  <Measured Metric>
soluble on expression in E. coli

>  <Value Reported>
soluble

$$$$
>  <Chain>
MLLPTPEDLKKRRNELGLTQSDLAKRAGVSQPLIARIESGDVDPRLSTVRKILDAFEEAEKERQILIRDLMHSPVLHVSPEDSVEEVVNLMHVHGFSQIPVLDRGIPVGSVSEDMIVRLMGESKKKPISQLKVSGIMGESFPTVSPGISISVVSHILEGNPAVLVVEKGTVVGVVTKHDVMKLLQGQ

>  <Measured Metric>
soluble on expression in E. coli

>  <Value Reported>
not soluble

$$$$
>  <Chain>
MSLVEVYLNSSSMIPIDRYYEYDIYDLVIEAYKNFEGEYDVNSIDLIVVANAYSQKLNNASLIAPKIAEKIGKPNVPSIKVDNADASGGAALLTAYSLIKSNMVNSVLIVGVEKQSDYPSKYLYDAISTNLDDYMFYNGISSHSVAALLMRQYMKRYGVDRNYFANWAIKMHKNATENPFAYLRFQVDLNTVINSQIISDPVRLFDVGARADGAAILLLSNNKTESAVKINKILSAQARYDFSPSLPSVRMLRDKLELKFSERTGIDIHDSYSIMAALMLEEAGIFESGKSLHNLDSVNVNLGGGLKARGHVGGASAIYQLAEAHMQLIGSFKGKKASVDNYIVISSDDLGMVSYGINLSREGHHHHHH

>  <Measured Metric>
soluble on expression in E. coli

>  <Value Reported>
not soluble

$$$$

FYI, the data here is from the DeepSol protein solubility set.
